- measured_on: HCV NS3/4A protease complex, BMS strain (UniProt P27958, C1454S/C1711G, species not given/STRAIN_BMS)
- assay_procedure: Recombinant HCV NS3/4A protease complex FRET peptide assay (BMS strain)
- Type: biochemical, HCV genotype 1a
- measurement_context: NS3/4A BMS strain; read-out: IC50 range
quantity_name: IC50

Record summary for C=C[C@@H]1C[C@]1(NC(=O)[C@@H]1CC(Oc2nccc3cc(OC)ccc23)CN1C(=O)[C@@H](NC(=O)OC1CCC1)C(C)(C)C)C(=O)NS(=O)(=O)C1CC1 (stereo partly shown) : reported IC50 = < 100 nM

Record summary for C=C[C@@H]1C[C@]1(NC(=O)[C@@H]1C[C@@H](Oc2nccc3c(Cl)cccc23)CN1C(=O)[C@@H](NC(=O)OC(C)(C)C)C(C)(C)C)C(=O)NS(=O)(=O)C1CC1 : reported IC50 = < 100 nM

Record summary for C=C[C@@H]1C[C@]1(NC(=O)[C@@H]1C[C@@H](Oc2nccc3cc(OC)ccc23)CN1C(=O)[C@H](CC(=O)OCc1ccccc1)NC(=O)OC(C)(C)C)C(=O)NS(=O)(=O)C1CC1 : reported IC50 = < 100 nM

Record summary for C=C[C@@H]1C[C@]1(NC(=O)[C@@H]1CC(Oc2nc(-c3ccccc3)cc3ccccc23)CN1C(=O)[C@@H](NC(=O)OC(C)(C)C)[C@H](C)OC)C(=O)NS(=O)(=O)C1CC1 (stereo partly shown) : reported IC50 = < 100 nM

Record summary for C=C[C@@H]1C[C@]1(NC(=O)[C@@H]1C[C@@H](Oc2cc(-c3ccccc3)ncn2)CN1C(=O)[C@@H](NC(=O)OC(C)(C)C)C(C)(C)C)C(=O)NS(=O)(=O)C1CC1 : reported IC50 = < 100 nM

Record summary for C=C[C@@H]1CC1(NC(=O)[C@@H]1CC(Oc2nccc3cc(OC)ccc23)CN1C(=O)[C@@H](NC(=O)CO[C@H]1C[C@@H](C)CC[C@@H]1C(C)C)C(C)(C)C)C(=O)NS(=O)(=O)C1CC1 (stereo partly shown) : reported IC50 = < 100 nM

Record summary for C=C[C@@H]1C[C@]1(NC(=O)[C@@H]1C[C@@H](Oc2cncc(-c3ccccc3)c2)CN1C(=O)[C@@H](NC(=O)OC(C)(C)C)C(C)(C)C)C(=O)NS(=O)(=O)C1CC1 : reported IC50 = < 100 nM

Record summary for C=C[C@@H]1C[C@]1(NC(=O)[C@@H]1C[C@@H](Oc2cncc(-c3csc(C)n3)c2)CN1C(=O)[C@@H](NC(=O)OC(C)(C)C)C(C)(C)C)C(=O)NS(=O)(=O)C1CC1 : reported IC50 = 100 to 1000 nM

Record summary for C=C[C@@H]1C[C@]1(NC(=O)[C@@H]1C[C@@H](Oc2nc(-c3ccoc3)cc3cc(OC)ccc23)CN1C(=O)[C@@H](NC(=O)OC(C)(C)C)C(C)(C)C)C(=O)NS(=O)(=O)C1CC1 : reported IC50 = < 100 nM

Record summary for C=C[C@@H]1C[C@]1(NC(=O)[C@@H]1C[C@@H](Oc2nccc3cc(OC)ccc23)CN1C(=O)[C@@H](NC(=O)OC(C)(C)C)[C@H](C)OC(C)(C)C)C(=O)NS(=O)(=O)C1CC1 : reported IC50 = < 100 nM

Record summary for C=C[C@@H]1C[C@]1(NC(=O)[C@@H]1C[C@@H](Oc2nc(-c3ccc(OC)cc3)cc3ccccc23)CN1C(=O)[C@@H](NC(=O)OC(C)(C)C)C(C)(C)C)C(=O)NS(=O)(=O)C1CC1 : reported IC50 = < 100 nM

Record summary for C=C[C@@H]1C[C@]1(NC(=O)[C@@H]1C[C@@H](Oc2nccc3ccccc23)CN1C(=O)[C@@H](NC(=O)[C@@H]1COc2ccccc2O1)C(C)(C)C)C(=O)NS(=O)(=O)C1CC1 : reported IC50 = 100 to 1000 nM

Record summary for C=CC1CC1(NC(=O)[C@@H]1C[C@@H](Oc2ccnc(N3CCOCC3)n2)CN1C(=O)[C@@H](NC(=O)OC)C(C)(C)C)C(=O)NS(=O)(=O)C1CC1 (stereo partly shown) : reported IC50 = 1000 to 10000 nM

Record summary for C=CC1CC1(NC(=O)[C@@H]1C[C@@H](Oc2cc(C(F)(F)F)nc3nc(C)ccc23)CN1C(=O)[C@@H](NC(=O)OC(C)(C)C)C(C)(C)C)C(=O)NS(=O)(=O)C1CC1 (stereo partly shown) : reported IC50 = 100 to 1000 nM

Record summary for C=CC1C[C@]1(NC(=O)[C@@H]1C[C@@H](Oc2ccnc3c(F)cccc23)CN1C(=O)[C@@H](NC(=O)OC(C)(C)C)C(C)(C)C)C(=O)NS(=O)(=O)C1CC1 (stereo partly shown) : reported IC50 = < 100 nM

Record summary for C=C[C@@H]1C[C@]1(NC(=O)[C@@H]1C[C@@H](Oc2nccc3ccccc23)CN1C(=O)[C@@H](NC(=O)OC(C)(C)C)C(C)(C)C)C(=O)NS(=O)(=O)C1CC1 : reported IC50 = < 100 nM

Record summary for C=C[C@@H]1C[C@]1(NC(=O)[C@@H]1C[C@@H](Oc2nccc3c(C(F)(F)F)cccc23)CN1C(=O)[C@@H](NC(=O)OC(C)(C)C)C(C)(C)C)C(=O)NS(=O)(=O)C1CC1 : reported IC50 = < 100 nM

Record summary for C=CC1C[C@]1(NC(=O)[C@@H]1C[C@@H](COc2cccc(-c3ccsc3)n2)CN1C(=O)[C@@H](NC(=O)OC)C(C)(C)C)C(=O)NS(=O)(=O)C1CC1 (stereo partly shown) : reported IC50 = 10000 to 100000 nM

Record summary for C=C[C@@H]1CC1(NC(=O)[C@@H]1CC(Oc2nccc3cc(OC)ccc23)CN1C(=O)[C@@H](NC(=O)CO[C@@H]1C[C@H](C)CC[C@H]1C(C)C)C(C)(C)C)C(=O)NS(=O)(=O)C1CC1 (stereo partly shown) : reported IC50 = 100 to 1000 nM

----------
- measured_on: HCV NS3/4A protease complex, J4L6S strain (Hepatitis C virus genotype 1b, UniProt O92972, C1454S/C1711G)
- Construct: recombinant HCV NS3/4A protease complex (amino acids 1027 to 1711); inferred from pET21b vector and Ni-NTA purification
- Sequence (O92972 1027-1711 C1454S/C1711G, one chain of several): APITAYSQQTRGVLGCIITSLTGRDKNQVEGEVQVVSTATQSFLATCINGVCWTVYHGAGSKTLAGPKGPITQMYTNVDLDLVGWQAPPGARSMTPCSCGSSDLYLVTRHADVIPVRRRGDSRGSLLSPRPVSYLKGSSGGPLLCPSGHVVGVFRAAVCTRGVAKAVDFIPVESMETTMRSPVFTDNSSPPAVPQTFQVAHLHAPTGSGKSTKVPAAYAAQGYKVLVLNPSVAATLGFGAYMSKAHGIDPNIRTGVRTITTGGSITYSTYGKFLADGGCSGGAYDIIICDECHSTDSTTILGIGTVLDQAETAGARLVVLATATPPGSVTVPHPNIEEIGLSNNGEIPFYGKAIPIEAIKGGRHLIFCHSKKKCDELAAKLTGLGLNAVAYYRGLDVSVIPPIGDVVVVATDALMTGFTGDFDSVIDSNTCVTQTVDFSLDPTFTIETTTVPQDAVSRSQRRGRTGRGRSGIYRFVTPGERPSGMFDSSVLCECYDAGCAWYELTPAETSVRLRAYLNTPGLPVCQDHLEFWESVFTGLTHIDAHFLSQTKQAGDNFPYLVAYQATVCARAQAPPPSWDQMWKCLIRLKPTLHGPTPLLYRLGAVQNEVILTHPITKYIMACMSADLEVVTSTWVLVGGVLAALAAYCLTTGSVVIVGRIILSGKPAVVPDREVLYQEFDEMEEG
- assay_procedure: Recombinant HCV NS3/4A protease complex FRET peptide assay (J4L6S strain)
quantity_name: IC50 (nM)
Supply the numeric figure in nM, leaving out any unit text.

Record summary for C=C[C@@H]1C[C@]1(NC(=O)[C@@H]1C[C@@H](Oc2nc(C3CC3)cc3ccccc23)CN1C(=O)[C@@H](NC(=O)OC(C)(C)C)C(C)(C)C)C(=O)NS(=O)(=O)C1CC1 [Compound 34] : reported IC50 = 2.9

----------
- Tested on: HCV replicon in Huh7 cells
- assay_procedure: HCV replicon cell-based assay
- Parameters: species or system HCV strain 1B
- measurement_context: Hepatitis C virus, Huh-7; HCV replicon, Huh7 cells; read-out: EC50 range
- Experimental: HCV Replicon Cell-based Assay This system enabled us to evaluate the effects of our HCV Protease compounds on HCV RNA replication. […] Huh7 cells, constitutively expressing the HCV replicon, were grown in Dulbecco's Modified Eagle Media (DMEM) containing 10% Fetal calf serum (FCS) and 1 mg/ml G418 (Gibco-BRL). […] The plate was then placed into the Cytofluor 4000 instrument which had been set to 340 nm excitation/490 emission, automatic mode for 21 cycles and the plate read in a kinetic mode. […]
pEC50: −log10 of the molar value.
For each entry below, report its pEC50 value.

Measured pEC50 (HCV replicon in Huh7 cells), entry C=C[C@@H]1C[C@]1(NC(=O)C1CC(Oc2nc(-c3ccccc3)nc3ccccc23)CN1C(=O)[C@@H](NC(=O)OC(C)(C)C)C(C)(C)C)C(=O)NS(=O)(=O)C1CC1 (some centres unmarked) [Compound 47] : 6.00 to 7.00

Measured pEC50 (HCV replicon in Huh7 cells), entry C=C[C@@H]1C[C@]1(NC(=O)[C@@H]1C[C@@H](Oc2nc(-c3ccncc3)cc3ccccc23)CN1C(=O)[C@@H](NC(=O)OC(C)(C)C)C(C)(C)C)C(=O)NS(=O)(=O)C1CC1 [Compound 27] : > 7.00

Measured pEC50 (HCV replicon in Huh7 cells), entry C=CC1C[C@]1(NC(=O)[C@@H]1C[C@@H](Oc2nnc(Cl)c3ccccc23)CN1C(=O)[C@@H](NC(=O)OC(C)(C)C)C(C)(C)C)C(=O)NS(=O)(=O)C1CC1 (some centres unmarked) [Compound 195] : > 7.00

Measured pEC50 (HCV replicon in Huh7 cells), entry C=C[C@@H]1C[C@]1(NC(=O)[C@@H]1C[C@@H](Oc2nccc3cccc(OC)c23)CN1C(=O)[C@@H](NC(=O)OC(C)(C)C)C(C)(C)C)C(=O)NS(=O)(=O)C1CC1 [Compound 264] : 5.00 to 6.00

Measured pEC50 (HCV replicon in Huh7 cells), entry C=C[C@@H]1C[C@]1(NC(=O)[C@@H]1CC(Oc2nccc3cc(OC)ccc23)CN1C(=O)[C@@H](NC(=O)OC(C)(C)c1ccc(C(F)(F)F)cc1)C(C)(C)C)C(=O)NS(=O)(=O)C1CC1 (some centres unmarked) [Compound 73] : 6.00 to 7.00
